Test system: human colon carcinoma cells (HT-29)
Experiment: XTT cell proliferation assay, HT-29 cells, 48 h
Assay type: cell-based
Settings: 25 μM compound, read-out: % Survival
assay_endpoint: viability at 25 µM

Brc1ccc(-c2[nH]c(-c3c[nH]c4ccc(Br)cc34)nc2-c2ccccc2)cc1    28%
Cc1[nH]c2ccccc2c1-c1nc(-c2ccc(Br)cc2)c(-c2ccc(Br)cc2)[nH]1    106%
Cc1[nH]c2ccccc2c1-c1nc(-c2cccs2)c(-c2cccs2)[nH]1    63.9%
Cc1[nH]c2ccccc2c1-c1nc(-c2ccccc2)c(-c2ccc(Cl)cc2)[nH]1    98.6%
Cc1[nH]c2ccccc2c1-c1nc(-c2ccncc2)c(-c2ccc(F)cc2)[nH]1    62.3%

Moving on to another molecule below.
The reported human colon carcinoma cells (HT-29) viability at 25 µM of Cc1[nH]c2ccccc2c1-c1nc(-c2cccc([N+](=O)[O-])c2)c(-c2cccc([N+](=O)[O-])c2)[nH]1 is 37.1%
